test system: Saccharomyces cerevisiae; test: protein stability index of tFT-peptide fusion (C-terminal peptide) (PSI (0-1 scale)); higher = more stable (slower turnover); conditions: genetic background: wild type; temperature: 30 C;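 further: PSI is a weighted mean of sequencing reads over stability bins, variants kept only with over 10 reads, mCherry proximal and sfGFP distal, peptide attached via GGGS linker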
OBSERVABLE: protein stability index
Numbers only.

Example entries and their recorded answers appear below.
FMLRTCFLTTSK ... 0.718
CVPLGCDWRGLI ... 0.642

Give me protein stability index for each of these sequences, listed below.
1. DDGQWVGFCGWT
2. GEKKTNHEPGAS
3. SPPPPTSPRPLT
4. CMFPVSHRLLYL

## Output
1: 0.749; 2: 0.759; 3: 0.709; 4: 0.615

Give me protein stability index for each of these sequences, listed below.
1. SFFWAMSLLCFV
2. HSTPPSPAPPTA
3. RNPLDGDSGSRG

## Output
1: 0.455; 2: 0.675; 3: 0.699

Give me protein stability index for each of these sequences, listed below.
1. SSLSLDERKPRT
2. AKWGGDGCGARM
3. GSRCSEAQDRSD
4. GKLHKNTDEIET

## Output
1: 0.712; 2: 0.764; 3: 0.713; 4: 0.762

====

test system: Saccharomyces cerevisiae; assay: protein stability index of tFT-peptide fusion (C-terminal peptide) (PSI (0-1 scale)); higher = more stable (slower turnover); conditions: genetic background: doa10 deletion; temperature: 30 C
OBSERVABLE: protein stability index
Answers are plain numbers.

Example entries and their recorded answers appear below.
FCCSVFCFLCLY ... 0.544
VKIEVICRVSLI ... 0.338
VYCLFLPLGVAF ... 0.146
FFVFYICSCFLV ... 0.457

Now take the following sequence into account.
## Input Determine from records and report protein stability index for FRILVGCRVVLM
## Output 0.311

====

system: Saccharomyces cerevisiae; assay: protein stability index of tFT-peptide fusion (C-terminal peptide) (PSI (0-1 scale)); higher = more stable (slower turnover); conditions: genetic background: wild type; temperature: 37 C
OBSERVABLE: protein stability index
Numbers only.

LLVRSFIFPLVY ... 0.441
LAINVRRELLFF ... 0.235
YNTRLCTFSCML ... 0.772
NFSALECKVQLT ... 0.689
EMISRNVFTYLS ... 0.627
FLTLQSPIQYIV ... 0.124

Now take the following sequence into account.
## Input Determine from records and report protein stability index for EMPRLSKAIRVT
## Output 0.496

====

system: Saccharomyces cerevisiae; assay: protein stability index of tFT-peptide fusion (C-terminal peptide) (PSI (0-1 scale)); higher = more stable (slower turnover); settings: genetic background: wild type; temperature: 30 C
Mark no (0) for protein stability index values under 0.7, and yes (1) for everything at or above.

CLGPTVYGRSTF ... yes (1)
PRRSPPCSTPPP ... yes (1)
NDQWKKENRGKK ... yes (1)
SFTFSFWRFSPR ... no (0)
KCWSGTVMVRLG ... no (0)
SSGRHCLPCANV ... no (0)
SPLPPSPSPPTP ... yes (1)
CGQEQGCEGAVD ... no (0)

## Input In plain terms: is recorded protein stability index at least 0.7 for PPPLSPFTTPPS ?
## Output yes (1)

## Input In plain terms: is recorded protein stability index at least 0.7 for FYFLSFLLLLSP ?
## Output no (0)

## Input In plain terms: is recorded protein stability index at least 0.7 for PPLPYPCPPVFV ?
## Output no (0)

## Input In plain terms: is recorded protein stability index at least 0.7 for SNIDIEAELNKT ?
## Output yes (1)

## Input In plain terms: is recorded protein stability index at least 0.7 for RYKSVPLHCISN ?
## Output no (0)

## Input In plain terms: is recorded protein stability index at least 0.7 for LDSWKQDLYTVC ?
## Output no (0)
